# System: MCF7
# test: NCI tumour cell line growth inhibition, 48 h
The source made the active and inactive calls. Rule as the data show it: active = GI50 up to about 1.1 µM and inactive = higher.
Listed here are molecules together with their documented GI50.
readout_kind: GI50

molecule=O=c1[nH]c(=O)n(COCCO)cc1-c1ccccc1 result="> 100 µM (inactive)"
molecule=COc1ccc(/C=N/N2C(=O)c3c(N)c(C#N)c(-c4ccccc4)c(-c4ccccc4)c3C2=O)cc1 result="> 100 µM (inactive)"
molecule=COc1cccc2c1CCc1c(-c3ccc(F)cc3)cc(-c3ccc4ccccc4n3)nc1-2 result="> 100 µM (inactive)"
molecule="CC1(C)C2CCC1(C)C(NC(=O)CCN1CCOCC1)C2 (centres undefined)" result="> 100 µM (inactive)"
molecule=Cn1c(=O)c2nc(CS(=O)(=O)Cc3nc4c(=O)n(C)c(=O)n(C)c4[nH]3)[nH]c2n(C)c1=O result="28.1 µM (inactive)"
molecule="CCC(C)C1NC(=O)C(NC(=O)c2c3nc4c(C(=O)NC5C(=O)NC(C(C)CC)C(=O)N6CCCC6C(=O)N(C)CC(=O)N(C)C(C(C)C)C(=O)OC5C)ccc(C)c4oc-3c(C)c(=O)c2O)C(C)OC(=O)C(C(C)C)N(C)C(=O)CN(C)C(=O)C2CCCN2C1=O (centres undefined)" result="1.11 µM (active)"
molecule=Oc1cc(-c2ccc3ccccc3c2)nc2ncccc12 result="5.77 µM (inactive)"
molecule=C[n+]1ccc2/c(=C\C#N)c3ccccc3n21 result="20.5 µM (inactive)"
molecule=O=C(/C=C/c1ccc2c(c1)OCO2)CC(=O)C(=O)c1c[nH]c2ccccc12 result="32.2 µM (inactive)"
